target: Recombinant human TSG-6 (R&D Biosystems, catalog #2104-TS) (human, UniProt P98066 18-277); assay: inhibition of HA binding to TSG-6; HA binding
Sequence (P98066 18-277): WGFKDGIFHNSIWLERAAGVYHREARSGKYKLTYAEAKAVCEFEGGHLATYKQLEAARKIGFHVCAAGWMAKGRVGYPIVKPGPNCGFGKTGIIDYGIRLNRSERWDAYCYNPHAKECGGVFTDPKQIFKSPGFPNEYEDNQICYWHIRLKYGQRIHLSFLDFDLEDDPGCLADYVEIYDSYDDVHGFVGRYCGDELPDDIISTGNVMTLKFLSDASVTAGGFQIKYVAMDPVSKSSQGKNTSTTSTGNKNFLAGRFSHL
Readout type: IC50 (nM)
Give the value in nM but do not write nM after it.

[in] // returns reported IC50 for input 3E4 (antibody, V domains shown) VH: QVQLQQPGAELVKPGASVKLSCKASGYTFTSQWMHWVKQRPGQGLEWIGMIHPNSGSTNNNEKFKSKATLTVDKSSSTAYMQLSSLTSEDSAVYYCTRWAMDYWGQGTSVTASS VL: DVVMTQTPLSLPVSLGDLASISCRSSQSLVHSNGNTYLHWYLQKPGQSPKLLIFKVSNRFSGVPDRFSGSGSGTDFTLKISRVEAEDLGVYFCSQSTHVPWTFGGGTKLEIKR
[out] 290

[in] Same question for 1D7 (antibody, V domains shown) VH: EVQLQQSGPELVKPGASVKISCKASGYTFTDYYMNWVKQSHGKSLEWIGDINPNNGGTTYNQKFKGKATLTVDKSSSTAYMELRSLTSEDSAVYYCARWGIFDRFTYWGQGTVVTVSA VL: DIKMTQSPSSMYASRGERVTITCKASQDINSFLSWFQQKPGKSPKTLIYRANRLVDGVPSRFSGSGSGQDYSLTISSLEYEDMGIYYCLQYDEFPLTFGAGTKLELKR please.
[out] 47

[in] Same question for 3C6 (antibody, V domains shown) VH: EVQLQQSGPELVKPGASVKIPCKASGYTFTDYNMDWVKQSHGESLEWIGDIYPNNGGTIYNQKFKDKATLTVDKSSSTAYMELRSLTSEDNAVYYCARKTGTGFDYWGQGTTLTVSS VL: QIVLSQSPAILSASPGEKVTMTCRARSSVIYMHWYQQKPGSSPKPWIYATFNLASGVPARFSGSGSGTSYSLTISRVEAEDAATYYCQQWSSNPPTFGSGTKLEIKR please.
[out] 10
